Just for reference, patent US20110124634A1 is where these values come from.

System: HSP90 client protein Her2 in SKBR-3 cells
Experiment: Her-2 degradation assay (Her-2 ELISA) in SKBr-3 cells
Assay type: cell-based
Settings: Homo sapiens, SK-BR-3, Table 3, 18 hours, means of three independent experiments
Procedure: Most of the compounds synthesized were evaluated for their ability to induce degradation of the HSP90 client protein Her2 in SKBR-3 cells. Selected compounds were evaluated in a fluorescence polarization (FP) assay for their affinity to HSP90. SKBr-3 cells grown in McCoy's 5a Medium supplemented with 10% fetal bovine serum (FBS) were plated into 12-well plates at 50% confluency. […] ELISA plates were read at 450 nm using a multiwell plate spectrophotometer. […]
value-kind: IC50

1) COc1cc(CN2CC(=O)N(CC(C)C)c3c(Cl)nc(N)nc32)c(Cl)c(OC)c1OC : > 5000 nM
2) Cc1cnc(CN2CC(=O)N(CC(C)C)c3c(Cl)nc(N)nc32)c(C)c1Br : 100 nM

* * *

system: HSP90 client protein Her2 in SKBR-3 cells; experiment: Her-2 degradation assay (Her-2 ELISA) in SKBr-3 cells; assay type: cell-based; conditions: Homo sapiens, SK-BR-3, Table 1, series I, 18 hours, means of three independent experiments
pIC50: −log10 of the molar value.
Below, each of the compounds is paired with its reported pIC50 value.
value-kind: pIC50

1. COc1c(C)cnc(CN2CC(=O)N(CCCN3CCOCC3)c3c(Cl)nc(N)nc32)c1C [Example I-10] : 5.81
2. COc1c(C)cnc(CN2CC(=O)Nc3c(Cl)nc(N)nc32)c1C [Example I-2] : 6.24
3. COc1c(C)cnc(CN2CC(=O)N(C(C)C)c3c(Cl)nc(N)nc32)c1C [Example I-4] : 7.30
4. COc1c(C)cnc(CN2CC(=O)N(CCCC(C)C)c3c(Cl)nc(N)nc32)c1C [Example I-3] : 5.72
5. COc1c(C)cnc(CN2CC(=O)N(CC(C)C)c3c(Cl)nc(N)nc32)c1C [Example I-6] : 7.40
6. COc1c(C)cnc(CN2CC(=O)N(C)c3c(Cl)nc(N)nc32)c1C [Example I-5] : 6.03
7. COc1c(C)cnc(CN2CC(=O)N(CCN3CCCC3)c3c(Cl)nc(N)nc32)c1C [Example I-7] : 6.29

* * *

tested on: MCF-7; assay: MTS assay (cytotoxicity), growth inhibition of MCF-7; type: cell-based; conditions: Homo sapiens, MCF7, 120 h, Table 5, series III, 5 days, read-out: Growth Inhibition (IC50) MCF-7
value-kind: IC50 (µM)

1. CCN(CC)CCNC(=O)c1c[nH]c(/C=C2\C(=O)N(Cc3ncc(C)c(OC)c3C)c3nc(N)nc(Cl)c32)c1 : 0.07
2. COc1c(C)cnc(CN2C(=O)/C(=C\c3ccc[nH]3)c3c(Cl)nc(N)nc32)c1C : 0.09
3. COc1c(C)cnc(CN2C(=O)/C(=C\c3[nH]c(C)c(C(=O)NCCN4CCS(=O)(=O)CC4)c3C)c3c(Cl)nc(N)nc32)c1C : 0.24
4. COc1c(C)cnc(CN2C(=O)/C(=C\c3[nH]c(C)c(C(=O)NCCN4CCOCC4)c3C)c3c(Cl)nc(N)nc32)c1C : 0.81
5. COc1c(C)cnc(CN2C(=O)/C(=C\c3[nH]cnc3C)c3c(Cl)nc(N)nc32)c1C : 0.53
6. COc1c(C)cnc(CN2C(=O)/C(=C\c3[nH]c(C)c(C(=O)NCCN4CCCC4)c3C)c3c(Cl)nc(N)nc32)c1C : 5.88
7. COc1c(C)cnc(CN2C(=O)/C(=C\c3nc(NC(=O)C4CCOCC4)c[nH]3)c3c(Cl)nc(N)nc32)c1C : 0.16
8. COc1c(C)cnc(CN2C(=O)/C(=C\c3cc(C(=O)NCC(O)CO)c[nH]3)c3c(Cl)nc(N)nc32)c1C (stereo not drawn) : 0.4
9. COc1c(C)cnc(CN2C(=O)/C(=C\c3cc(C(=O)CN4CCOCC4)c[nH]3)c3c(Cl)nc(N)nc32)c1C : 0.13
10. CCN(CC)CC(=O)c1c[nH]c(/C=C2\C(=O)N(Cc3ncc(C)c(OC)c3C)c3nc(N)nc(Cl)c32)c1 : 0.71
11. COc1c(C)cnc(CN2C(=O)/C(=C\c3ncc[nH]3)c3c(Cl)nc(N)nc32)c1C : 0.1
12. CCN(CC)CCCNC(=O)c1c[nH]c(/C=C2\C(=O)N(Cc3ncc(C)c(OC)c3C)c3nc(N)nc(Cl)c32)c1 : 0.41
13. COc1c(C)cnc(CN2C(=O)/C(=C\c3cc(C(=O)NCCN4CCC(=O)CC4)c[nH]3)c3c(Cl)nc(N)nc32)c1C : 0.41
14. CCN(CC)CCNC(=O)c1c[nH]c(/C=C2\C(=O)N(Cc3nc(C)c(C)s3)c3nc(N)nc(Cl)c32)c1 : 0.77
15. COc1c(C)cnc(CN2C(=O)/C(=C\c3[nH]c(C)c(C(=O)NCCN4CCC(O)CC4)c3C)c3c(Cl)nc(N)nc32)c1C : 0.23
16. Cc1nc(CN2C(=O)/C(=C\c3cc(C(=O)NCCN4CCOCC4)c[nH]3)c3c(Cl)nc(N)nc32)sc1C : 0.32
17. COC(=O)c1ccc(/C=C2\C(=O)N(Cc3ncc(C)c(OC)c3C)c3nc(N)nc(Cl)c32)[nH]1 : 0.96
